# target: mouse ACVR2A (mouse, UniProt P27038 20-135, limits assumed); further: test concentration or dose not given here
# Sequence (P27038 20-135 limits assumed): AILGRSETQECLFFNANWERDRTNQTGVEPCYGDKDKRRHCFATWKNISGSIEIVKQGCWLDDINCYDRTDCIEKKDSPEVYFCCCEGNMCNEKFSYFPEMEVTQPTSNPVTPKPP
# assay.summary: ELISA
endpoint.label: optical density (OD)
Enter your answer as a number in OD; do not include the unit.

binder	optical density (OD)
373_G06 (antibody, V domains shown, Group II) VH: EVQLLESGGGLVQPGGSLRLSCAASGFTFSSYGMHWVRQAPGKGLEWVASINYNSGYTGYADSVKGRFTISRDNSKNTLYLQMNSLRAEDTAVYYCARAATWHDTHLDYWGQGTLVTVSS VL: DIQMTQSPSSLSASVGDRVTITCRASQSILSYVNWYQQKPGKAPKLLIYAATSLASGVPSRFSGSGSGTDFTLTISSLQPEDFATYYCQQSYNLPLTFGGGTKVEIK	3.52

Turning to the following binder.
Data request, read-out optical density, for 367_B11 (antibody, V domains shown, Group I) VH: EVQLLESGGGLVQPGGSLRLSCAASGFTFSDYSMHWVRQAPGKGLEWVANINYNSGYTSYADSVKGRFTISRDNSKNTLYLQMNSLRAEDTAVYYCARAANWHDTALDYWGQGTLVTVSS VL: DIQMTQSPSSLSASVGDRVTITCRASQSILSYLNWYQQKPGKAPKLVIYAATSRASGVPSRFSGSGSGTDFTLTISSLQPEDFATYYCQQSYSTPLTFGGGTKVEIK
2.46
